system: HCT-116 human colorectal carcinoma cells; test: Cell-proliferation assay using Alamar Blue dye; type: cell-based; settings: Homo sapiens, HCT-116, second HCT-116 column (c8); read-out: HCT-116 (uM) cell proliferation modulatory activity;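 also: cells exposed to compound for about 4 days, then Alamar Blue added and dye fluorescence read after about 4 h, compared with medium-only control wells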
Record form. Attribute: IC50. Fill in for each entry.

INPUT: Entry CN(C)c1ncc2c(n1)c(N(C)c1ccccc1)nc1cc(C(=O)O)ccc12 : reported IC50 = ?
OUTPUT: > 10 µM

INPUT: Entry N#Cc1ccc2c(c1)nc(Nc1ccc(F)cc1)c1cscc12 : reported IC50 = ?
OUTPUT: > 10 µM

INPUT: Entry O=C(O)c1ccc2c(c1)nc(Nc1ccc3ncccc3c1)c1ccncc12 : reported IC50 = ?
OUTPUT: > 10 µM

INPUT: Entry Cc1c(-c2ccccc2)nn(C)c1Nc1nc2cc(C(=O)O)ccc2c2cnccc12 : reported IC50 = ?
OUTPUT: 2.34 µM

INPUT: Entry N#Cc1ccc2c(c1)nc(Cl)c1cscc12 : reported IC50 = ?
OUTPUT: > 10 µM

INPUT: Entry CC(C)c1cccc(Nc2nc3cc(C(=O)O)ccc3c3cnccc23)c1 : reported IC50 = ?
OUTPUT: > 10 µM

INPUT: Entry O=C(O)c1ccc2c(c1)nc(Nc1cccc(F)c1)c1cccnc12 : reported IC50 = ?
OUTPUT: > 10 µM

INPUT: Entry O=C(O)c1ccc2c(c1)nc(N1CCc3c([nH]c4ccccc34)C1)c1ccncc12 : reported IC50 = ?
OUTPUT: > 10 µM

INPUT: Entry O=C(O)c1ccc2c(c1)nc(Nc1ccc3cn[nH]c3c1)c1ccncc12 : reported IC50 = ?
OUTPUT: > 10 µM

INPUT: Entry O=C(O)c1ccc2c(c1)nc(Nc1cccc(F)c1)c1cnccc12 : reported IC50 = ?
OUTPUT: > 10 µM

INPUT: Entry CONC(=O)c1ccc2c(c1)nc(Nc1cccc(Cl)c1)c1ccncc12 : reported IC50 = ?
OUTPUT: 4.54 µM

INPUT: Entry O=C(O)c1ccc2c(c1)nc(Nc1cccc(Cl)c1)c1nccnc12 : reported IC50 = ?
OUTPUT: > 10 µM

INPUT: Entry c1cc2c(NC3CCNCC3)nc3cc(-c4nnn[nH]4)ccc3c2s1 : reported IC50 = ?
OUTPUT: > 10 µM

====

target: recombinant human PIM1 (Homo sapiens (Human), UniProt P11309); test: PIM-1 kinase activity in cell-free in vitro assay; assay type: biochemical; settings: 500 nM compound, cell-free; read-out: PIM-1: % inh 500 nM
Sequence (P11309 whole entry): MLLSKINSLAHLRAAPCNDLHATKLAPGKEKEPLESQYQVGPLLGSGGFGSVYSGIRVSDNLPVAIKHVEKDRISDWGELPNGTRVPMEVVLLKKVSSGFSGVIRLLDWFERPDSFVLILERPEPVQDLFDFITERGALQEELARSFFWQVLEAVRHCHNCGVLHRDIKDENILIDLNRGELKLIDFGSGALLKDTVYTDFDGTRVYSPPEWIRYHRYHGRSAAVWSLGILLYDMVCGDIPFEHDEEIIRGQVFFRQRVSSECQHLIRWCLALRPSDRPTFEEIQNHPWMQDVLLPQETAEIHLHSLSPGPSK
measuredAttribute: inhibition at 0.5 µM (%)
# value in %; strip the unit string

INPUT: Entry CNc1ncc2c(n1)c(Nc1ccccc1)nc1cc(C(=O)O)ccc12 : reported inhibition at 0.5 µM = ?
OUTPUT: 20.8

INPUT: Entry C#Cc1cccc(Nc2nc3cc(C(=O)O)ccc3c3cncnc23)c1 [drawing 1544] : reported inhibition at 0.5 µM = ?
OUTPUT: 65.9

INPUT: Entry c1ccc(Nc2nc3cc(-c4nnn[nH]4)ccc3c3cnccc23)cc1 : reported inhibition at 0.5 µM = ?
OUTPUT: 33.1

INPUT: Entry N#Cc1ccc2c(c1)nc(Nc1ccccc1)c1ccsc12 [drawing 1431] : reported inhibition at 0.5 µM = ?
OUTPUT: -22.3

INPUT: Entry CCOc1ccc(Nc2nc3cc(-c4nnn[nH]4)ccc3c3sccc23)cc1 : reported inhibition at 0.5 µM = ?
OUTPUT: 46.1

INPUT: Entry N#Cc1cccc(Nc2nc3cc(C(=O)O)ccc3c3cnccc23)c1 : reported inhibition at 0.5 µM = ?
OUTPUT: 92.4

INPUT: Entry COc1ccc(OC)c(Nc2nc3cc(-c4nnn[nH]4)ccc3c3sccc23)c1 : reported inhibition at 0.5 µM = ?
OUTPUT: 21.8

INPUT: Entry O=C(O)c1ccc2c(c1)nc(Nc1cc(F)cc(Cl)c1)c1ccsc12 : reported inhibition at 0.5 µM = ?
OUTPUT: 90

INPUT: Entry N#Cc1cc(F)cc(Nc2nc3cc(C(=O)O)ccc3c3sccc23)c1 : reported inhibition at 0.5 µM = ?
OUTPUT: 87

INPUT: Entry CN(C)CCNc1nc2cc(C(=O)O)ccc2c2sccc12 : reported inhibition at 0.5 µM = ?
OUTPUT: 83.4

INPUT: Entry FC(F)(F)Oc1cccc(Nc2nc3cc(-c4nnn[nH]4)ccc3c3sccc23)c1 : reported inhibition at 0.5 µM = ?
OUTPUT: 30.7

INPUT: Entry O=C(O)c1ccc2c(c1)nc(Nc1ccc(F)cc1F)c1ccsc12 : reported inhibition at 0.5 µM = ?
OUTPUT: 67.2

INPUT: Entry CN(C)CCNc1nc2cc(-c3nnn[nH]3)ccc2c2cnccc12 : reported inhibition at 0.5 µM = ?
OUTPUT: 38.1

INPUT: Entry Fc1cc(Cl)cc(Nc2nc3cc(-c4nnn[nH]4)ccc3c3sccc23)c1 : reported inhibition at 0.5 µM = ?
OUTPUT: 82

INPUT: Entry N#Cc1ccc2c(c1)nc(Nc1ccccc1)c1ccccc12 : reported inhibition at 0.5 µM = ?
OUTPUT: -65.4

INPUT: Entry O=C(O)c1cccc(Nc2nc3cc(-c4nnn[nH]4)ccc3c3sccc23)c1 : reported inhibition at 0.5 µM = ?
OUTPUT: 58

====

molecular target: recombinant human PIM1 (Homo sapiens (Human)); test: PIM-1 kinase activity in cell-free in vitro assay; assay type: biochemical; conditions: 500 nM compound, cell-free assay; read-out: PIM-1: % inh 500 nM
Record form. Attribute: inhibition at 0.5 µM. Fill in for each entry.
# value in %; strip the unit string

INPUT: Entry O=C(c1ccc2c(c1)nc(Nc1cccc(Cl)c1)c1ccncc12)N1CCOCC1 : reported inhibition at 0.5 µM = ?
OUTPUT: -14.4

INPUT: Entry CN(CCc1ccccn1)c1nc2cc(C#N)ccc2c2sccc12 : reported inhibition at 0.5 µM = ?
OUTPUT: 19.4

INPUT: Entry N#Cc1ccc2c(c1)nc(NCCN1CCCC1)c1ccsc12 : reported inhibition at 0.5 µM = ?
OUTPUT: -22.4

INPUT: Entry OCCN(CCO)CCNc1nc2cc(-c3nnn[nH]3)ccc2c2sccc12 : reported inhibition at 0.5 µM = ?
OUTPUT: 118

INPUT: Entry O=C(O)c1ccc2c(c1)nc(Nc1cccc(Cl)c1)c1nccnc12 : reported inhibition at 0.5 µM = ?
OUTPUT: 9.61

INPUT: Entry C#Cc1cccc(Nc2nc3cc(C(=O)O)ccc3c3cnc(NCCCOC(C)C)nc23)c1 : reported inhibition at 0.5 µM = ?
OUTPUT: -1.78

INPUT: Entry N#Cc1ccc2c(c1)nc(Oc1ccc(F)c(F)c1)c1ccsc12 : reported inhibition at 0.5 µM = ?
OUTPUT: 27.8

INPUT: Entry N#Cc1ccc2c(c1)nc(Oc1cccc(Cl)c1)c1ccsc12 : reported inhibition at 0.5 µM = ?
OUTPUT: 10.6

INPUT: Entry NC(=O)c1ccc(Nc2nc3cc(C(=O)O)ccc3c3cnccc23)cc1 : reported inhibition at 0.5 µM = ?
OUTPUT: 78.2

INPUT: Entry Cc1cccc(Nc2nc3cc(C(=O)O)ccc3c3cnccc23)c1 : reported inhibition at 0.5 µM = ?
OUTPUT: 86.7

INPUT: Entry N#Cc1cc(F)cc(Nc2nc3cc(C(=O)O)ccc3c3cnccc23)c1 : reported inhibition at 0.5 µM = ?
OUTPUT: 94.6

INPUT: Entry C#Cc1cccc(Nc2nc3cc(C(=O)O)ccc3c3cnc(NCCC)nc23)c1 : reported inhibition at 0.5 µM = ?
OUTPUT: 45.6

INPUT: Entry FC(F)(F)c1cccc(Nc2nc3cc(-c4nnn[nH]4)ccc3c3ccsc23)c1 : reported inhibition at 0.5 µM = ?
OUTPUT: 10.8

INPUT: Entry CC(C)OCCNC(=O)c1ccc2c(c1)nc(N1CCN(C)CC1)c1ccsc12 : reported inhibition at 0.5 µM = ?
OUTPUT: -3.62

INPUT: Entry O=C(O)c1ccc2c(c1)nc(NC1CCCCC1)c1ccncc12 : reported inhibition at 0.5 µM = ?
OUTPUT: 64.8

INPUT: Entry O=C(O)c1ccc2nc(Nc3cccc(Cl)c3)c3ccncc3c2c1 : reported inhibition at 0.5 µM = ?
OUTPUT: 11.9

INPUT: Entry CCN1CCCC1CNc1nc2cc(C#N)ccc2c2cscc12 (stereo not shown) : reported inhibition at 0.5 µM = ?
OUTPUT: 6.89

INPUT: Entry O=C(O)c1ccc2c(c1)nc(Nc1ccccc1)c1cccnc12 : reported inhibition at 0.5 µM = ?
OUTPUT: 34.7

INPUT: Entry CNc1ncc2c(n1)c(Nc1ccccc1)nc1cc(C(=O)OC)ccc12 : reported inhibition at 0.5 µM = ?
OUTPUT: -9.76

====

target: recombinant human PIM1 (Homo sapiens (Human)); experiment: PIM-1 kinase activity in cell-free in vitro assay; assay type: biochemical; details: 500 nM compound, cell-free assay; read-out: PIM-1: % inh 500 nM
Record form. Attribute: inhibition at 0.5 µM. Fill in for each entry.
# value in %; strip the unit string

INPUT: Entry CC(C)Nc1ncc2c(n1)c(N(C)c1ccccc1)nc1cc(C(=O)O)ccc12 : reported inhibition at 0.5 µM = ?
OUTPUT: 39.9

INPUT: Entry Clc1cccc(Nc2nc3ccccc3c3cnccc23)c1 : reported inhibition at 0.5 µM = ?
OUTPUT: -22.8

INPUT: Entry C#Cc1cccc(Nc2nc3cc(C(=O)NCc4ccc(C#N)cc4)ccc3c3cncnc23)c1 : reported inhibition at 0.5 µM = ?
OUTPUT: -14.6

INPUT: Entry NC1CCN(c2nc3cc(-c4nnn[nH]4)ccc3c3sccc23)C1 (stereo not drawn) : reported inhibition at 0.5 µM = ?
OUTPUT: 63.6

INPUT: Entry Cc1ncc2c(n1)c(Nc1cccc(Cl)c1)nc1cc(C(=O)O)ccc12 : reported inhibition at 0.5 µM = ?
OUTPUT: 12.9

INPUT: Entry N#Cc1ccc2c(c1)nc(NC1CCNCC1)c1ccsc12 : reported inhibition at 0.5 µM = ?
OUTPUT: 70.1
